These measurements were taken from patent US20100028340A1.

Recorded Kd, one value per entry.
Target: T1, recombinant purified human RGM A (R&D Systems Cat# 2459-RM) (human) (UniProt Q96B86)
T1 sequence: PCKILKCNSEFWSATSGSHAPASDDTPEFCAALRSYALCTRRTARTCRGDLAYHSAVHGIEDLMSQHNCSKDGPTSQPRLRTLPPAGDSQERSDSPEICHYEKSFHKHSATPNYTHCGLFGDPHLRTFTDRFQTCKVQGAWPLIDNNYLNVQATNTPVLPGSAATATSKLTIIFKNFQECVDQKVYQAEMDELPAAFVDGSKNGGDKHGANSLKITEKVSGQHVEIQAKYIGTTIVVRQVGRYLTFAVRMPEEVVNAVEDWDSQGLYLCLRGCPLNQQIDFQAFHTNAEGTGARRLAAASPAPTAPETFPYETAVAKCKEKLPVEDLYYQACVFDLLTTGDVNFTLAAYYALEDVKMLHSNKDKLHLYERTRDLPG
Assay: SPR (Biacore 3000), antibody captured by anti-human IgG Fc, hRGMA in solution, 25 °C
PROPERTY_MEASURED: Kd

BINDER	RESULT
h5F9.25 (antibody, human IgG1, V domains shown) VH: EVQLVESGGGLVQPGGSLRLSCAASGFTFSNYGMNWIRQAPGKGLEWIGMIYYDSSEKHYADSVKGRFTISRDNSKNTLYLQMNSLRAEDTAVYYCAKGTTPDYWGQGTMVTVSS VL: DVVLTQSPLSLPVTLGQPASISCRSSQSLEYSDGYTFLEWFLQKPGQSPQLLIYEVSNRFSGVPDRFSGSGSGTDFTLKISRVEAEDVGVYYCFQATHDPLTFGQGTKLEIKR	5.78 nM
chimeric 5F9 (antibody, V domains shown) VH: EVQLVESGGGLVQPGSSLKLSCVASGFTFSNYGMNWIRQAPKKGLEWIGMIYYDSSEKHYADSVKGRFTISRDNSKNTLYLEMNSLRSEDTAIYYCAKGTTPDYWGQGVMVTVSS VL: DVVLTQTPVSLSVTLGDQASMSCRSSQSLEYSDGYTFLEWFLQKPGQSPQLLIYEVSNRFSGVPDRFIGSGSGTDFTLKISRVEPEDLGVYYCFQATHDPLTFGSGTKLEIKR	3.09 nM
h5F9.21 (antibody, human IgG1, V domains shown) VH: EVQLVESGGGVVQPGRSLRLSCAASGFTFSNYGMNWIRQAPGKGLEWIGMIYYDSSEKHYADSVKGRFTISRDNSKNTLYLQMNSLRAEDTAVYYCAKGTTPDYWGQGTMVTVSS VL: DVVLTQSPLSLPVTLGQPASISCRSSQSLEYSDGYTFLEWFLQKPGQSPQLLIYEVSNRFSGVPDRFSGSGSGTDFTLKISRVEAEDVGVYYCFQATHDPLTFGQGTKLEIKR	7.59 nM
